condition-context: in n-pentyl acetate, 318.45 K
measurement-kind: solubility (mole fraction)
Reply with the value as a number alone.

Prompt line: Reported solubility (mole fraction) for "CCCCCCCCCCCCCCCCCC(=O)OCCO" : what is it?
Response line: 0.447

###

condition-context: in 1,1,1-trichloroethane, 290.45 K
measurement-kind: solubility (mole fraction)
Reply with the value as a number alone.

Prompt line: Reported solubility (mole fraction) for "CCCCCCCCCCCCCCCCCC(=O)OCCO" : what is it?
Response line: 0.0147

###

condition-context: in isopropanol, 316.15 K
measurement-kind: solubility (mole fraction)
Reply with the value as a number alone.

Prompt line: Reported solubility (mole fraction) for "CCCCCCCCCCCCCCCCCCCC(=O)OCCO" : what is it?
Response line: 0.0062

###

condition-context: in 1,1,2-trichlorotrifluoroethane, 314.15 K
measurement-kind: solubility (mole fraction)
Reply with the value as a number alone.

Prompt line: Reported solubility (mole fraction) for "CCCCCCCCCCCCCCCCCC(=O)OCCO" : what is it?
Response line: 0.128

###

condition-context: in trichloroethylene, 297 K
measurement-kind: solubility (mole fraction)
Reply with the value as a number alone.

Prompt line: Reported solubility (mole fraction) for "CCCCCCCCCCCCCCCCCCCC(=O)OCCO" : what is it?
Response line: 0.0428

###

condition-context: in isobutanol, 295.75 K
measurement-kind: solubility (mole fraction)
Reply with the value as a number alone.

Prompt line: Reported solubility (mole fraction) for "CCCCCCCCCCCCCCCCCCCCCC(=O)OCCO" : what is it?
Response line: 0.0001

###

condition-context: in MIBK, 294.65 K
measurement-kind: solubility (mole fraction)
Reply with the value as a number alone.

Prompt line: Reported solubility (mole fraction) for "CCCCCCCCCCCCCCCCCCCC(=O)OCCO" : what is it?
Response line: 0.0026

###

condition-context: in 1,1,1-trichloroethane, 303.75 K
measurement-kind: solubility (mole fraction)

Prompt line: Reported solubility (mole fraction) for "CCCCCCCCCCCCCCCCCCCC(=O)OCCO" : what is it?
Response line: 0.0762

###

condition-context: in n-propyl acetate, 299.95 K
measurement-kind: solubility (mole fraction)
Reply with the value as a number alone.

Prompt line: Reported solubility (mole fraction) for "CCCCCCCCCCCCCCCCCC(=O)OCCO" : what is it?
Response line: 0.0493

###

condition-context: in n-propyl acetate, 311.85 K
measurement-kind: solubility (mole fraction)
Reply with the value as a number alone.

Prompt line: Reported solubility (mole fraction) for "CCCCCCCCCCCCCCCCCC(=O)OCCO" : what is it?
Response line: 0.228

###

condition-context: in n-butyl acetate, 297.45 K
# solubility (mole fraction) per record follows
Reply with the value as a number alone.

record-smiles: CCCCCCCCCCCCCCCCCC(=O)OCCO
solubility (mole fraction): 0.0304

Next, consider the following compound.
Prompt line: Reported solubility (mole fraction) for "CCCCCCCCCCCCCCCCCCCC(=O)OCCO" : what is it?
Response line: 0.009

###

condition-context: in ethanol, 319.15 K
measurement-kind: solubility (mole fraction)
Reply with the value as a number alone.

Prompt line: Reported solubility (mole fraction) for "CCCCCCCCCCCCCCCCCCCC(=O)OCCO" : what is it?
Response line: 0.002

###

condition-context: in n-propanol, 296.55 K
measurement-kind: solubility (mole fraction)
Reply with the value as a number alone.

Prompt line: Reported solubility (mole fraction) for "CCCCCCCCCCCCCCCCCCCCCC(=O)OCCO" : what is it?
Response line: 0.0002

###

condition-context: in cyclohexane, 312.46 K
measurement-kind: solubility (mole fraction)
Reply with the value as a number alone.

Prompt line: Reported solubility (mole fraction) for "CCCCCCCCCCCCCCCCCC(=O)OCCO" : what is it?
Response line: 0.208

###

condition-context: in n-butanol, 303.75 K
measurement-kind: solubility (mole fraction)
Reply with the value as a number alone.

Prompt line: Reported solubility (mole fraction) for "CCCCCCCCCCCCCCCCCCCC(=O)OCCO" : what is it?
Response line: 0.0006

###

condition-context: in ethanol, 311.65 K
measurement-kind: solubility (mole fraction)

Prompt line: Reported solubility (mole fraction) for "CCCCCCCCCCCCCCCCCCCCCC(=O)OCCO" : what is it?
Response line: 0.0007

###

condition-context: in cyclohexane, 300.25 K
measurement-kind: solubility (mole fraction)
Reply with the value as a number alone.

Prompt line: Reported solubility (mole fraction) for "CCCCCCCCCCCCCCCCCC(=O)OCCO" : what is it?
Response line: 0.0128

###

condition-context: in ethyl acetate, 300.95 K
measurement-kind: solubility (mole fraction)
Reply with the value as a number alone.

Prompt line: Reported solubility (mole fraction) for "CCCCCCCCCCCCCCCCCC(=O)OCCO" : what is it?
Response line: 0.0332

###

condition-context: in trichloroethylene, 301.35 K
measurement-kind: solubility (mole fraction)
Reply with the value as a number alone.

Prompt line: Reported solubility (mole fraction) for "CCCCCCCCCCCCCCCCCCCCCC(=O)OCCO" : what is it?
Response line: 0.0177

###

condition-context: in isopropanol, 305.15 K
measurement-kind: solubility (mole fraction)
Reply with the value as a number alone.

Prompt line: Reported solubility (mole fraction) for "CCCCCCCCCCCCCCCCCCCCCC(=O)OCCO" : what is it?
Response line: 0.0003

###

condition-context: in n-butyl acetate, 307.35 K
measurement-kind: solubility (mole fraction)
Reply with the value as a number alone.

Prompt line: Reported solubility (mole fraction) for "CCCCCCCCCCCCCCCCCCCC(=O)OCCO" : what is it?
Response line: 0.0655

###

condition-context: in n-pentyl acetate, 298.95 K
measurement-kind: solubility (mole fraction)
Reply with the value as a number alone.

Prompt line: Reported solubility (mole fraction) for "CCCCCCCCCCCCCCCCCC(=O)OCCO" : what is it?
Response line: 0.0453

###

condition-context: in trichloroethylene, 296.25 K
measurement-kind: solubility (mole fraction)

Prompt line: Reported solubility (mole fraction) for "CCCCCCCCCCCCCCCCCCCCCC(=O)OCCO" : what is it?
Response line: 0.0089

###

condition-context: in ethyl acetate, 302.15 K
measurement-kind: solubility (mole fraction)
Reply with the value as a number alone.

Prompt line: Reported solubility (mole fraction) for "CCCCCCCCCCCCCCCCCC(=O)OCCO" : what is it?
Response line: 0.0433

###

condition-context: in tetrachloroethylene, 298.45 K
measurement-kind: solubility (mole fraction)
Reply with the value as a number alone.

Prompt line: Reported solubility (mole fraction) for "CCCCCCCCCCCCCCCCCCCCCC(=O)OCCO" : what is it?
Response line: 0.0003

###

condition-context: in 1,1,1-trichloroethane, 290.15 K
measurement-kind: solubility (mole fraction)
Reply with the value as a number alone.

Prompt line: Reported solubility (mole fraction) for "CCCCCCCCCCCCCCCCCCCCCC(=O)OCCO" : what is it?
Response line: 0.0146

###

condition-context: in n-hexyl acetate, 332.85 K
measurement-kind: solubility (mole fraction)

Prompt line: Reported solubility (mole fraction) for "CCCCCCCCCCCCCCCCCC(=O)OCCO" : what is it?
Response line: 0.631

###

condition-context: in cyclohexane, 315.56 K
measurement-kind: solubility (mole fraction)
Reply with the value as a number alone.

Prompt line: Reported solubility (mole fraction) for "CCCCCCCCCCCCCCCCCC(=O)OCCO" : what is it?
Response line: 0.303

###

condition-context: in ethanol, 311.25 K
measurement-kind: solubility (mole fraction)

Prompt line: Reported solubility (mole fraction) for "CCCCCCCCCCCCCCCCCCCC(=O)OCCO" : what is it?
Response line: 0.0006

###

condition-context: in n-pentyl acetate, 322.85 K
measurement-kind: solubility (mole fraction)
Reply with the value as a number alone.

Prompt line: Reported solubility (mole fraction) for "CCCCCCCCCCCCCCCCCC(=O)OCCO" : what is it?
Response line: 0.657

All values here come from BigSolDB 2.1.
